# system: T1, human CD20 (human, UniProt P11836 1-297)
# T1 construct: whole, on cells; Always presented on cells; also called MS4A1; CD20 WT
# T1 sequence (looked up): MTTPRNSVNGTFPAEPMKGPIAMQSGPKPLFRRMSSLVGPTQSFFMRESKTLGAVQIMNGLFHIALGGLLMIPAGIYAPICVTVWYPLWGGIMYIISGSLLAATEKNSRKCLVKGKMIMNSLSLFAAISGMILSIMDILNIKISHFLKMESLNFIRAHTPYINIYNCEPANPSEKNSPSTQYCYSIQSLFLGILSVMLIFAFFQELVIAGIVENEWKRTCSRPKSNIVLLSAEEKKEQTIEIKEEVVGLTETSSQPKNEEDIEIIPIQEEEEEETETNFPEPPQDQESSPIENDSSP
# procedure-summary: LigandTracer Green, 10 nM FITC-labeled mAb on SKBR3-CD20 cells, OneToOne fit, non-competitive dissociation

binder	kon [M⁻¹ s⁻¹]
m2 (mIgG2c-CD20 mAb) (antibody, V domains shown, FITC- or Alexa647-labelled in the kinetic assays; label sites not given, Mouse IgG2c hybridoma mAb; FITC- or Alexa647-labeled in the kinetic assays) VH: QAYLQQSGAELVRPGASVKMSCKASGYTFTSYNMHWVKQTPRQGLEWIGGIYPGNGDTSYNQKFKGKATLTVDKSSSTAYMQLSSLTSEDSAVYFCARYYYGSSYGAMDYWGQGTSVTVSS VL: QIVLSQSPAILSASPGEKVTMTCRASSSVSYMHWYQQKPGSSPKPWIYATSNLASGVPARFSGSGSGTSYSLTISRVEAADAATYYCHQWTFNPPTFGGGTKLEIK	85400
